System: BIRC5
Protocol details: Cardiac glycosides, BIRC5 expression in pancreatic cancer
Format: cell-based

Compound	BIRC5 expression in pancreatic cancer
C[C@]12CC[C@H](O)C[C@H]1CC[C@@H]1[C@@H]2CC[C@]2(C)[C@@H](c3ccc(=O)oc3)CC[C@]12O	inhibit BIRC5 expression
C[C@]12CC[C@H](O)C[C@H]1CC[C@@H]1[C@@H]2CC[C@]2(C)[C@@H](C3=CC(=O)OC3)CC[C@]12O	inhibit BIRC5 expression
C[C@@H]1O[C@@H](O[C@H]2C[C@@H](O)[C@]3(CO)[C@H]4[C@H](O)C[C@]5(C)[C@@H](C6=CC(=O)OC6)CC[C@]5(O)[C@@H]4CC[C@]3(O)C2)[C@H](O)[C@H](O)[C@H]1O	inhibit BIRC5 expression
C[C@H]1O[C@@H](O[C@H]2[C@@H](O)C[C@H](O[C@H]3[C@@H](O)C[C@H](O[C@H]4CC[C@@]5(C)[C@H](CC[C@@H]6[C@@H]5C[C@@H](O)[C@]5(C)[C@@H](C7=CC(=O)OC7)CC[C@]65O)C4)O[C@@H]3C)O[C@@H]2C)C[C@H](O)[C@@H]1O	inhibit BIRC5 expression
CC(=O)O[C@H]1C[C@H](O[C@H]2[C@@H](O)C[C@H](O[C@H]3[C@@H](O)C[C@H](O[C@H]4CC[C@@]5(C)[C@H](CC[C@@H]6[C@@H]5C[C@@H](O)[C@]5(C)[C@@H](C7=CC(=O)OC7)CC[C@]65O)C4)O[C@@H]3C)O[C@@H]2C)O[C@H](C)[C@H]1O[C@@H]1O[C@H](CO)[C@@H](O)[C@H](O)[C@H]1O [Lanatoside C]	inhibit BIRC5 expression

// data source = patent US10813909B2
